From various publications: IC50 for Methionine aminopeptidase 2 (Homo sapiens).

Request: Hi! What's the reported IC50 for O=C1COCCN1c1ccc(N2CCC(O)(C(=O)NCc3cc(F)cc(Cl)c3)C2=O)cn1 (stereo not drawn) on Methionine aminopeptidase 2 (Homo sapiens)?
Response: 10 to 1000 nM

Request: Could you share what IC50 was measured for `O=C1CCc2cc(N3CC[C@](O)(C(=O)NCc4cc(F)c(F)cc4F)C3=O)ccc2N1` , tested on Methionine aminopeptidase 2 (Homo sapiens)?
Response: 10 to 1000 nM

Request: Form: Entry = NC(=O)c1cccc(N2CCC(O)(C(=O)NCc3cccc(F)c3Cl)C2=O)c1 (stereo not drawn) | System = Methionine aminopeptidase 2 (Homo sapiens) | IC50 = ____
Response: 10 to 1000 nM

Request: Checklist item: IC50 tested on Methionine aminopeptidase 2 (Homo sapiens), entry `NCCCCN1CCc2cccc(OC[C@H]3CCCN3c3ccnc4ncnn34)c2C1` , value?
Response: 10 to 1000 nM

Request: State its IC50 on Methionine aminopeptidase 2 (Homo sapiens): `O=C(NCCc1noc(C2CCCC2)n1)[C@@]1(O)CCN(c2ccccc2)C1=O`
Response: > 10000 nM

Request: Give IC50 (Methionine aminopeptidase 2 (Homo sapiens)) of the following compound: `CCn1cc(N2CC[C@](O)(C(=O)NCc3cc(F)cc(F)c3)C2=O)cn1`
Response: 10 to 1000 nM

Request: Form field - read-out: IC50; system: Methionine aminopeptidase 2 (Homo sapiens); submitted item: `O=C(NCc1cccc(F)c1)[C@]1(O)CCCN(Cc2cccc(F)c2F)C1=O`
Response: > 10000 nM

Request: Find IC50 (Methionine aminopeptidase 2 (Homo sapiens)) for the entry `O=C(NCCc1cccs1)[C@@]1(Cl)CCN(c2ccccc2)C1=O`
Response: > 10000 nM

Request: # query: IC50 | item `O=C(NCc1cc(F)cc(Cl)c1)[C@@]1(O)CCN(Cc2ccccc2)C1=O` | system: Methionine aminopeptidase 2 (Homo sapiens)
Response: 10 to 1000 nM

Request: Item: OC1(CNCc2cc(F)cc(Cl)c2)CCN(c2ccccc2)C1 (stereo not drawn) Test system: Methionine aminopeptidase 2 (Homo sapiens) Read-out: IC50 Value: ?
Response: > 10000 nM

Request: Request body: readout IC50, system Methionine aminopeptidase 2 (Homo sapiens), query `CC(=O)N1CCc2cccc(OC[C@H]3CCCN3c3ccnc4ncnn34)c2C1` . Return the value.
Response: 10 to 1000 nM

Request: For Methionine aminopeptidase 2 (Homo sapiens), provide IC50 of O=C(NCc1cccc(F)c1Cl)C1(O)CCN(c2ccc3[nH]ccc3c2)C1=O (stereo not drawn) please.
Response: 10 to 1000 nM

Request: Kindly state the measured IC50 obtained for `O=C(NCc1cccc(Cl)c1F)[C@]1(O)CCN(c2ccc(F)cc2)C1=O` with Methionine aminopeptidase 2 (Homo sapiens).
Response: 1000 to 10000 nM

Request: Record lookup: for Methionine aminopeptidase 2 (Homo sapiens), what IC50 belongs to `O=C(NCCN1CCCC1)[C@@]1(O)CCN(c2ccccc2)C1=O` ?
Response: > 10000 nM

Request: Notebook entry, Methionine aminopeptidase 2 (Homo sapiens) assay: IC50 of `Cc1ccc(N2CC[C@](O)(C(=O)NCc3cc(F)cc(Cl)c3)C2=O)cn1` = ?
Response: 10 to 1000 nM

Request: Give Methionine aminopeptidase 2 (Homo sapiens) IC50 for `O=C(N1CCN(CCO)CC1)[C@@]1(O)CCN(c2ccccc2)C1=O`
Response: > 10000 nM

Request: Item `O=C(OC[C@H]1CCCN1c1ccnc2ncnn12)c1cccnc1` with Methionine aminopeptidase 2 (Homo sapiens) - IC50?
Response: 10 to 1000 nM

Request: Kindly state the measured IC50 obtained for NC(=O)c1cccc(N2CCC(O)(C(=O)NCc3cc(F)cc(F)c3)C2=O)c1 (stereo not drawn) with Methionine aminopeptidase 2 (Homo sapiens).
Response: 10 to 1000 nM

Request: Short answer please: IC50, Methionine aminopeptidase 2 (Homo sapiens), entry `N#CCCN1CCN(Cc2ccc(OC[C@H]3CCCN3c3ncnc4[nH]cnc34)c3ccccc23)CC1`
Response: 10 to 1000 nM

Request: # query: IC50 | item CCC(=O)Nc1ccc(N2CCC(O)(C(=O)NCc3cc(F)cc(Cl)c3)C2=O)cn1 (stereo not drawn) | system: Methionine aminopeptidase 2 (Homo sapiens)
Response: 10 to 1000 nM

Request: Report IC50 for CC(=O)NC1CCCC(N2CCC(O)(C(=O)NCc3cc(F)cc(Cl)c3)C2=O)C1 (stereo not drawn) tested on Methionine aminopeptidase 2 (Homo sapiens).
Response: 1000 to 10000 nM

Request: Observed IC50 on Methionine aminopeptidase 2 (Homo sapiens) for `FC(F)(F)c1cccc(COC[C@H]2CCCN2c2ccnc3ncnn23)c1` , please.
Response: 1000 to 10000 nM

Request: Return IC50 measured with Methionine aminopeptidase 2 (Homo sapiens) given this compound: `FC(F)(F)c1cc(OC[C@H]2CCCN2c2ncnc3[nH]cnc23)c2cc(Cl)ccc2n1`
Response: 10 to 1000 nM

Request: For Methionine aminopeptidase 2 (Homo sapiens), provide IC50 of `O=C1CCc2cc(N3CC[C@](O)(C(=O)NCc4cc(F)ccc4F)C3=O)ccc2N1` please.
Response: 10 to 1000 nM

Request: Test system Methionine aminopeptidase 2 (Homo sapiens); read-out IC50; what value for `CC(C)OCCCNC(=O)[C@@]1(O)CCN(c2ccccc2)C1=O` ?
Response: 1000 to 10000 nM

Request: Param readout= IC50; system= Methionine aminopeptidase 2 (Homo sapiens); entry= `O=C(NCCc1c[nH]c2ccccc12)c1cc(OC[C@H]2CCCN2c2ccnc3ncnn23)c2ccccc2n1` ; returns value.
Response: 10 to 1000 nM

Request: Which IC50 is reported with Methionine aminopeptidase 2 (Homo sapiens) for this entry: `c1ccc2c(OC[C@H]3CCCN3c3ncnc4[nH]cnc34)nccc2c1` ?
Response: 10 to 1000 nM

Request: Write down the reported IC50 of `O=C(NCC1CCCCC1)[C@@]1(O)CCN(c2ccccc2)C1=O` , test system: Methionine aminopeptidase 2 (Homo sapiens).
Response: 10 to 1000 nM

Request: // map `CC(=O)Nc1ccc(N2CC[C@](O)(C(=O)NCc3cccc(F)c3Cl)C2=O)cn1` to recorded IC50 (system: Methionine aminopeptidase 2 (Homo sapiens))
Response: 10 to 1000 nM

Request: Checklist item: IC50 tested on Methionine aminopeptidase 2 (Homo sapiens), entry `CN(C(=O)[C@@]1(O)CCN(c2ccccc2)C1=O)C1CCCC1` , value?
Response: 1000 to 10000 nM

Request: Notebook: pull reported IC50 for Methionine aminopeptidase 2 (Homo sapiens), entry O=C(NCc1cc(F)cc(Cl)c1)C1(O)CCN(c2cc(C(F)(F)F)ccc2F)C1=O (stereo not drawn)
Response: 10 to 1000 nM

Request: So what IC50 did `O=C(NCc1cccc(Br)c1)[C@]1(O)CCN(c2ccc(F)cc2)C1=O` get with Methionine aminopeptidase 2 (Homo sapiens)?
Response: 1000 to 10000 nM

Request: Kindly state the measured IC50 obtained for `F[C@H]1C[C@H](COc2ccccc2Cl)N(c2ncnc3[nH]cnc23)C1` with Methionine aminopeptidase 2 (Homo sapiens).
Response: 1000 to 10000 nM

Request: // map `CC(C)(C)OC(=O)NCC(=O)N1CCN(c2ccc3cccc(OC[C@H]4CCCN4c4ncnc5[nH]cnc45)c3c2)CC1` to recorded IC50 (system: Methionine aminopeptidase 2 (Homo sapiens))
Response: 1000 to 10000 nM

Request: Any idea what IC50 came out for `O=[N+]([O-])c1ccc2cccc(OC[C@H]3CCCN3c3ncnc4[nH]cnc34)c2c1` on Methionine aminopeptidase 2 (Homo sapiens)?
Response: 10 to 1000 nM

Request: Record lookup: for Methionine aminopeptidase 2 (Homo sapiens), what IC50 belongs to CC(=O)N1C[C@@H]2[C@H](C1)[C@H]2N1CCC(O)(C(=O)NCc2cc(F)cc(Cl)c2)C1=O (stereo partly drawn) ?
Response: 1000 to 10000 nM
